# tested.on: Biotin tagged HIF-2α protein containing PAS-B domain (240-350) (Homo sapiens, UniProt Q99814)
# Sequence (Q99814 240-350): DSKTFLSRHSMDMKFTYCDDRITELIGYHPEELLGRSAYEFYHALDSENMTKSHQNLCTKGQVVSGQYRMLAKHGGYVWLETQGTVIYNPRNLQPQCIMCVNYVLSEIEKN
We begin with a simple list: items and their reported IC50.

Some compounds with recorded IC50:
compound=O[C@H]1c2c(C(F)(F)F)nn(CCC3CC3)c2CCC1(F)F measured_result="100 to 1000 nM"
compound=O[C@H]1c2c(C(F)(F)F)nn(CCC(F)(F)F)c2CCC1(F)F measured_result="100 to 1000 nM"
compound=O[C@H]1c2c(C(F)(F)F)nn(CCCC(F)F)c2CCC1(F)F measured_result="100 to 1000 nM"
compound=O[C@H]1c2c(C(F)(F)F)nn(CCSC(F)(F)F)c2CCC1(F)F measured_result="< 100 nM"
compound=O[C@H]1c2c(C(F)(F)F)nn(CCC3(F)COC3)c2CCC1(F)F measured_result="100 to 1000 nM"

For CC(C)CCn1nc(C(F)(F)F)c2c1CCC(F)(F)[C@H]2O , what is its reported IC50? 100 to 1000 nM

For CO[C@H]1c2c(C(F)(F)F)nn(CCCC(F)(F)F)c2CCC1(F)F , what is its reported IC50? > 1000 nM

For CC(CCn1nc(C#N)c2c1CCC(F)(F)[C@H]2O)C(F)(F)F (stereo partly drawn) , what is its reported IC50? 100 to 1000 nM

For O[C@H]1c2c(C(F)(F)F)nn(CCC3CC3(F)F)c2CCC1(F)F (stereo partly drawn) , what is its reported IC50? < 100 nM

For O[C@H]1c2c(C(F)(F)F)nn(CCC3(C(F)(F)F)CC3)c2CCC1(F)F , what is its reported IC50? 100 to 1000 nM

For O[C@H]1c2c(C(F)(F)F)nn(CCC3CC3(F)F)c2CC1(F)F (stereo partly drawn) , what is its reported IC50? < 100 nM

For CC(C#N)CCn1nc(C(F)(F)F)c2c1CCC(F)(F)[C@H]2O (stereo partly drawn) , what is its reported IC50? 100 to 1000 nM

For CCCCn1nc(C(F)(F)F)c2c1CCC(F)(F)[C@H]2O , what is its reported IC50? 100 to 1000 nM
